- SUBJECT_OF_TEST: human STING WT protein (Homo sapiens)
- Sequence (Q86WV6 whole entry H232R): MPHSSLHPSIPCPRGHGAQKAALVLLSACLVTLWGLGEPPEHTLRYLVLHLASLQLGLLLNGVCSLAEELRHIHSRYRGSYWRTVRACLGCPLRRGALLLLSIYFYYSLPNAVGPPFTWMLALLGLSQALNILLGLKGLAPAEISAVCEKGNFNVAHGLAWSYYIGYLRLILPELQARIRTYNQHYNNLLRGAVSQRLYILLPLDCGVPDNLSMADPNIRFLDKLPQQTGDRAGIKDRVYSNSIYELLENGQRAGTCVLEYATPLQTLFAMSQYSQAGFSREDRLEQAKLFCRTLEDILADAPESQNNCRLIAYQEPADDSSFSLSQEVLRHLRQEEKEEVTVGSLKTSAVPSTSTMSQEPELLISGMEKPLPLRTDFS
- PROTOCOL_DETAILS: Human STING WT binding assay (Cisbio HTRF)
- ASSAY_CONTEXT: HTRF competition with STING WT ligand d2, 6 His-tagged human STING WT, 3 hours at RT; read-out: hSTING WT binding IC50
Reported IC50 values for the following compounds.
MEASURED_QUANTITY: IC50 (nM)

item_smiles=COc1cc2c(cc1OCCCOc1cc3c(cc1OC)CN(C(=O)CCC(=O)O)C3)CN(C(=O)CCC(=O)O)C2 value_qualifier=< reported_result=0.1
item_smiles=COc1cc2c(c(F)c1OCCCOc1c(OC)cc3c(c1Cl)CN(C(=O)CCC(=O)O)C3)CN(C(=O)CCC(=O)O)C2 value_qualifier== reported_result=149
item_smiles=COc1cc2c(cc1OCCCOc1cc3c(cc1OC)CN(C(=O)NCCC(=O)O)C3)CN(C(=O)CCC(=O)O)C2 value_qualifier== reported_result=144
item_smiles=COc1cc2c(nc1OCCCOc1nc3c(cc1OC)CN(C(=O)CCC(=O)O)C3)CN(C(=O)CCC(=O)O)C2 value_qualifier== reported_result=3.28
item_smiles=COc1cc2c(c(F)c1OCCCOc1c(OC)cc3c(c1F)CN(C(=O)CCC(=O)O)C3)CN(C(=O)CCC(=O)O)C2 value_qualifier== reported_result=0.32
item_smiles=COc1cc2c(cc1OCCCOc1cc3c(cc1OC)CN(C(=O)C[C@H](C)C(=O)O)C3)CN(C(=O)CCC(=O)O)C2 value_qualifier== reported_result=1.63
item_smiles=C=C(COc1cc2c(cc1OC)CN(C(=O)CCC(=O)O)C2)COc1cc2c(cc1OC)CN(C(=O)CCC(=O)O)C2 value_qualifier== reported_result=150
item_smiles=COc1cc2c(cc1OCCCOc1c(OC)cc3c(c1F)CN(C(=O)CCC(=O)O)C3)CN(C(=O)CCC(=O)O)C2 value_qualifier== reported_result=0.68
item_smiles=COc1cc2c(cc1OCCCOc1cc3c(c(F)c1OC)CN(C(=O)CCC(=O)O)C3)CN(C(=O)CCC(=O)O)C2 value_qualifier== reported_result=33.7
